systemName: T1, human Claudin 9 (human, UniProt O95484 1-217)
T1 construct: whole, on cells; also called CLDN9; CLND9
T1 sequence (looked up): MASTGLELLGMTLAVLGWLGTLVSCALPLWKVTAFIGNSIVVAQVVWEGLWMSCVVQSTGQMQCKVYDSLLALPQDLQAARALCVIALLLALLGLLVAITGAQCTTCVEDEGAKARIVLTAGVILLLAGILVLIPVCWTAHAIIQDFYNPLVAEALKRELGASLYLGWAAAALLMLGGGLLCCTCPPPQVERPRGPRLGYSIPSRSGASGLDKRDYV
testName: flow cytometry, HEK293/H_CLDN9 cells, Ab titrated from 100 nM
readoutKind: Top MFI
Lab note: jot the number down without any unit.

Which Top MFI is listed for 97-C10E1-2-P1.z13 (antibody, V domains shown) VH: QVQLQQSGAEVKKPGASMKISCKASGYAFTGYTMNWVRQAPGQNLEWIGLSNPYNAGTIYNQKFKGRATLTVDKSTSTAYMELLSLRSEDTAVYYCARNYYYGSSYAYYYAMDYWGQGTTVTVSS VL: DAQMTQSPSSLSASVGDRVTITCRSSTGAVTTSNYANWVQQKPGKAPKLLIGGTNNRAPGVPSRFSGSGSGTDATLTISSLQPEDFATYYCALWYSNHWVFGGGTKVEIK ?
315

Which Top MFI is listed for 97-C10E1-2-P1.z6 (antibody, V domains shown) VH: QVQLQQSGAEVKKPGASVKVSCKASGYAFTGYTMNWVRQAPGQNLEWIGLSNPYNAGTIYNQKFKGRVTLTVDKSTSTVYMELLSLRSEDTAVYYCARNYYYGSSYAYYYAMDYWGQGTTVTVSS VL: EAVMTQSPATLSVSPGERATLSCRSSTGAVTTSNYANWVQQKPGQAPRLLIGGTNNRAPGIPARFSGSGSGDEATLTISSLQSEDFAVYFCALWYSNHWVFGGGTKVEIK ?
417

Which Top MFI is listed for 97-C10E1-2-P1.z1 (antibody, V domains shown) VH: QVQLVQSGAEVKKPGASVKVSCKASGYAFTGYTMNWVRQAPGQGLEWIGLSNPYNAGTIYNQKFKGRVTMTVDKSTSTVYMELSSLRSEDTAVYYCARNYYYGSSYAYYYAMDYWGQGTTVTVSS VL: EAVMTQSPATLSVSPGERATLSCRSSTGAVTTSNYANWVQQKPGQAPRLLIGGTNNRAPGIPARFSGSGSGDEATLTISSLQSEDFAVYFCALWYSNHWVFGGGTKVEIK ?
479

Which Top MFI is listed for 97-C10E1-2-P1.z3 (antibody, V domains shown) VH: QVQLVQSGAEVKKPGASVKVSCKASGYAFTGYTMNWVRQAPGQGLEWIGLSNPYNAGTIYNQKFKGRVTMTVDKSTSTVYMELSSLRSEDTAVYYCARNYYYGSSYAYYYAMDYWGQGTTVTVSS VL: DAQMTQSPSSLSASVGDRVTITCRSSTGAVTTSNYANWVQQKPGKAPKLLIGGTNNRAPGVPSRFSGSGSGTDATLTISSLQPEDFATYYCALWYSNHWVFGGGTKVEIK ?
594

Which Top MFI is listed for 97-C10E1-2-P1.z11 (antibody, V domains shown) VH: QVQLQQSGAEVKKPGASMKISCKASGYAFTGYTMNWVRQAPGQNLEWIGLSNPYNAGTIYNQKFKGRATLTVDKSTSTAYMELLSLRSEDTAVYYCARNYYYGSSYAYYYAMDYWGQGTTVTVSS VL: EAVMTQSPATLSVSPGERATLSCRSSTGAVTTSNYANWVQQKPGQAPRLLIGGTNNRAPGIPARFSGSGSGDEATLTISSLQSEDFAVYFCALWYSNHWVFGGGTKVEIK ?
287
